biological target: FLAG-tagged human EBI2 (Homo sapiens, UniProt P32249); test: [35S]GTPγS binding to membranes from CHO cells stably expressing EBI2
Sequence (P32249 whole entry): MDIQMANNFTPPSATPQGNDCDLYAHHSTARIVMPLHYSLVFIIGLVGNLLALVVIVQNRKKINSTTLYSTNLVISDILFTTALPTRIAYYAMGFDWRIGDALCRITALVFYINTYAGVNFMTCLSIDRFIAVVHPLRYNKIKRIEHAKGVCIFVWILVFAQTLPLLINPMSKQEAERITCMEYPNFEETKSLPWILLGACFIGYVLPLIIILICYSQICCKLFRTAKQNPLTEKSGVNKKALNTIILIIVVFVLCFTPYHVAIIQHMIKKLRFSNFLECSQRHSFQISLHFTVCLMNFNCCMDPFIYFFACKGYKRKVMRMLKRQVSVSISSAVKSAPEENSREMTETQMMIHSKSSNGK
Endpoint label: EC50 (nM)
Expressed in nM, but write only the number.

// query Give the measured EC50 of C[C@H](CCCC(C)(C)O)[C@H]1CC[C@H]2[C@@H]3[C@H](O)C=C4C[C@@H](O)CC[C@]4(C)[C@H]3CC[C@]12C [7α,25-OHC, 7α,25-dihydroxycholesterol] .
// result 1
